- systemUnderTest: Aβ42 (Homo sapiens)
- Sequence (P05067 672-713): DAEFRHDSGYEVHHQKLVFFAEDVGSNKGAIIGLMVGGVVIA
- experimentSummary: Th-T (thioflavin-T) assay of Aβ42 aggregation
- Assay type: biochemical
- condition: column suffix _10; measurement M27
Param threshold (0.3) applies to Th-T fluorescence, mean of three wells (Fig. 7a); output rule met when value >= threshold, rule not met when value < threshold.

                                   compound         group
0  C=C1CC[C@@H]2[C@](C)(CC[C@H]3O[C@H](C=C(C)C)C[C@@]23C)[C@@H]1Cc1c(OC)oc(CO)c(C)c1=O [Compound 20]      rule met
1  C=C1CCC2C(C)(CCC=C(C)C)C(O)CCC2(C)C1Cc1c(OC)oc(CO)c(C)c1=O (centres unmarked) [Compound 12]      rule met
2  C=C1CC[C@@H]2[C@](C)(CC[C@H]3O[C@H](C=C(C)C)C[C@@]23C)[C@@H]1Cc1c(OC)oc(CO)c(C(=O)OC)c1=O [Compound 21]  rule not met
3  C=C1CCC2C(C)(CCC=C(C)C)C(O)CCC2(C)C1Cc1c(OC)oc(CO)c(C(=O)OC)c1=O (centres unmarked) [Compound 13]      rule met
4  C=C1CCC2C(C)(CCC=C(C)C)C(O)CCC2(C)C1Cc1c(OC)oc(C)c(C(=O)OC)c1=O (centres unmarked) [Compound 14]      rule met
